test.target: anti-H3K9me3 antibody ab8898
assay.text: peptide microarray binding signal (635 nm), min-max normalized on array (fraction of array maximum); higher = stronger binding
details: peptide region: Unmod H3 variant; binder concentration: 1:2,000 dilution
measured.endpoint: peptide microarray binding signal
Numbers only.

# binder, measured.endpoint, measured
rows = [
    ("ARTKQTARKSTGG [Unmod H3 variant A R T K Q T A R K S T G G]", "peptide microarray binding signal", 0.00101),
    ("QDFKTDLRFQSSA [Unmod H3 variant Q D F K T D L R F Q S S A]", "peptide microarray binding signal", 0.00157),
    ("ATKAARKSAPSTG [Unmod H3 variant A T K A A R K S A P S T G]", "peptide microarray binding signal", 0.000695),
    ("RKSAPSTGGVKKP [Unmod H3 variant R K S A P S T G G V K K P]", "peptide microarray binding signal", 0.000468),
    ("PFQRLVREIAQDF [Unmod H3 variant P F Q R L V R E I A Q D F]", "peptide microarray binding signal", 0.00316),
]

Count: 2. Required value per item: peptide microarray binding signal.
1. VGLFEDTNLCAIH [Unmod H3 variant V G L F E D T N L C A I H]
2. ATGGVKKPHRYRP [Unmod H3 variant A T G G V K K P H R Y R P]

RESULT:
1: 0.000287; 2: 0.000227

Origin of values: the supplement of paper PMC4022240
